System: HAB1
Assay: Yeast two hybrid of pBD-PYR1 site saturation mutants with pACT-HAB1 on 10 μM ABA, β-galactosidase staining
Type: cell-based, Arabidopsis
Set-up: key: x: Mutations in PYR1 that disrupt ABA-induced binding to PYR1 to HAB1
Conditions: S. cerevisiae Y190, 10 μM ABA; dead = lack of visible staining in comparison to wild type control
property: Mutations in PYR1 that disrupt ABA-induced binding to PYR1 to HAB1

N151L: PYR1 mutant (protein, UniProt O49686 1-191, looked up, variant N151L) Abscisic acid receptor PYR1: MPSELTPEERSELKNSIAEFHTYQLDPGSCSSLHAQRIHAPPELVWSIVRRFDKPQTYKHFIKSCSVEQNFEMRVGCTRDVIVISGLPANTSTERLDILDDERRVTGFSIIGGEHRLTNYKSVTTVHRFEKENRIWTVVLESYVVDMPEGLSEDDTRMFADTVVKLNLQKLATVAEAMARNSGDGSGSQVT :: x
S85D: PYR1 mutant (protein, UniProt O49686 1-191, looked up, variant S85D) Abscisic acid receptor PYR1: MPSELTPEERSELKNSIAEFHTYQLDPGSCSSLHAQRIHAPPELVWSIVRRFDKPQTYKHFIKSCSVEQNFEMRVGCTRDVIVIDGLPANTSTERLDILDDERRVTGFSIIGGEHRLTNYKSVTTVHRFEKENRIWTVVLESYVVDMPEGNSEDDTRMFADTVVKLNLQKLATVAEAMARNSGDGSGSQVT :: x
F61I: PYR1 mutant (protein, UniProt O49686 1-191, looked up, variant F61I) Abscisic acid receptor PYR1: MPSELTPEERSELKNSIAEFHTYQLDPGSCSSLHAQRIHAPPELVWSIVRRFDKPQTYKHIIKSCSVEQNFEMRVGCTRDVIVISGLPANTSTERLDILDDERRVTGFSIIGGEHRLTNYKSVTTVHRFEKENRIWTVVLESYVVDMPEGNSEDDTRMFADTVVKLNLQKLATVAEAMARNSGDGSGSQVT :: x
